# protocol.summary: total protein half-life in vivo (active degradation + dilution); higher = more stable protein
# test.conditions: E. coli NCM3722 delta-clpP; growth: N-lim chemostat; doubling time 6 h
Listed here are sequences together with their documented total protein half-life in vivo.
State the answer as a number, implicitly in h.

Below: 5 sequences and their reported total protein half-life in vivo.
- biopolymer.sequence: "MDLIYFLIDFILHIDVHLAELVAEYGVWVYAILFLILFCETGLVVTPFLPGDSLLFVAGALASLETNDLNVHMMVVLMLIAAIVGDAVNYTIGRLFGEKLFSNPNSKIFRRSYLDKTHQFYEKHGGKTIILARFVPIVRTFAPFVAGMGHMSYRHFAAYNVIGALLWVLLFTYAGYFFGTIPMVQDNLKLLIVGIIVVSILPGVIEIIRHKRAAARAAK [P0ABP6]"
  result.value: 3.87
- biopolymer.sequence: "MLRFSANLSMLFGEYDFLARFEKAAQCGFRGVEFMFPYDYDIEELKHVLASNKLEHTLHNLPAGDWAAGERGIACIPGREEEFRDGVAAAIRYARALGNKKINCLVGKTPAGFSSEQIHATLVENLRYAANMLMKEDILLLIEPINHFDIPGFHLTGTRQALKLIDDVGCCNLKIQYDIYHMQRMEGELTNTMTQWADKIGHLQIADNPHRGEPGTGEINYDYLFKVIENSDYNGWVGCEYKPQTTTEAGLRWMDPYR"
  result.value: 5.97
- biopolymer.sequence: "MTNPQFAGHPFGTTVTAETLRNTFAPLTQWEDKYRQLIMLGKQLPALPDELKAQAKEIAGCENRVWLGYTVAENGKMHFFGDSEGRIVRGLLAVLLTAVEGKTAAELQAQSPLALFDELGLRAQLSASRSQGLNALSEAIIAATKQV [P0AGF2]"
  result.value: 4.73
- biopolymer.sequence: "MIRSMTAYARREIKGEWGSATWEMRSVNQRYLETYFRLPEQFRSLEPVVRERIRSRLTRGKVECTLRYEPDVSAQGELILNEKLAKQLVTAANWVKMQSDEGEINPVDILRWPGVMAAQEQDLDAIAAEILAALDGTLDDFIVARETEGQALKALIEQRLEGVTAEVVKVRSHMPEILQWQRERLVAKLEDAQVQLENNRLEQELVLLAQRIDVAEELDRLEAHVKETYNILKKKEAVGRRLDFMMQEFNRESNTLASKSINAEVTNSAIELKVLIEQMREQIQNIE"
  result.value: 4.26
- biopolymer.sequence: "MIALIQRVTRASVTVEGEVTGEIGAGLLVLLGVEKDDDEQKANRLCERVLGYRIFSDAEGKMNLNVQQAGGSVLVVSQFTLAADTERGMRPSFSKGASPDRAEALYDYFVERCRQQEMNTQTGRFAADMQVSLVNDGPVTFWLQV [P0A6M4]"
  result.value: 3.81

Query string: Any idea what total protein half-life in vivo was measured for MSEGWNIAVLGATGAVGEALLETLAERQFPVGEIYALARNESAGEQLRFGGKTITVQDAAEFDWTQAQLAFFVAGKEATAAWVEEATNSGCLVIDSSGLFALEPDVPLVVPEVNPFVLTDYRNRNVIAVPDSLTSQLLAALKPLIDQGGLSRISVTSLISASAQGKKAVDALAGQSAKLLNGIPIDEEDFFGRQLAFNMLPLLPDSEGSVREERRIVDEVRKILQDEGLMISASVVQAPVFYGHAQMVNFEALRPLAAEEARDAFVQGEDIVLSEENEFPTQVGDASGTPHLSVGCVRNDYGMPEQVQFWSVADNVRFGGALMAVKIAEKLVQEYLY ?
Result string: 4.6

Query string: And MSEIVIRHAETRDYEAIRQIHAQPEVYCNTLQVPHPSDHMWQERLADRPGIKQLVACIDGDVVGHLTIDVQQRPRRSHVADFGICVDSRWKNRGVASALMREMIEMCDNWLRVDRIELTVFVDNAPAIKVYKKYGFEIEGTGKKYALRNGEYVDAYYMARVK ?
Result string: 3.7

Query string: Likewise for MVLMIVSGRSGSGKSVALRALEDMGFYCVDNLPVVLLPDLARTLADREISAAVSIDVRNMPESPEIFEQAMSNLPDAFSPQLLFLDADRNTLIRRYSDTRRLHPLSSKNLSLESAIDKESDLLEPLRSRADLIVDTSEMSVHELAEMLRTRLLGKRERELTMVFESFGFKHGIPIDADYVFDVRFLPNPHWDPKLRPMTGLDKPVAAFLDRHTEVHNFIYQTRSYLELWLPMLETNNRSYLTVAIGCTGGKHRSVYIAEQLADYFRSRGKNVQSRHRTLEKRKP [P0A894] ?
Result string: 4.58

Query string: Now give it for MHVKYLAGIVGAALLMAGCSSSNELSAAGQSVRIVDEQPGAECQLIGTATGKQSNWLSGQHGEEGGSMRGAANDLRNQAAAMGGNVIYGISSPSQGMLSSFVPTDSQIIGQVYKCPN [P0AF70] too.
Result string: 6.18

Query string: Now give it for MSLSRTQIVNWLTRCGDIFSTESEYLTGLDREIGDADHGLNMNRGFSKVVEKLPAIADKDIGFILKNTGMTLLSSVGGASGPLFGTFFIRAAQATQARQSLTLEELYQMFRDGADGVISRGKAEPGDKTMCDVWVPVVESLRQSSEQNLSVPVALEAASSIAESAAQSTITMQARKGRASYLGERSIGHQDPGATSVMFMMQMLALAAKE too.
Result string: 4.25

Query string: Then what about the sequence MIKRVLVVSMVGLSLVGCVNNDTLSGDVYTASEAKQVQNVSYGTIVNVRPVQIQGGDDSNVIGAIGGAVLGGFLGNTVGGGTGRSLATAAGAVAGGVAGQGVQSAMNKTQGVELEIRKDDGNTIMVVQKQGNTRFSPGQRVVLASNGSQVTVSPR [P0A905] ?
Result string: 5.83

Query string: Note, next up: MMNFNNVFRWHLPFLFLVLLTFRAAAADTLLILGDSLSAGYRMSASAAWPALLNDKWQSKTSVVNASISGDTSQQGLARLPALLKQHQPRWVLVELGGNDGLRGFQPQQTEQTLRQILQDVKAANAEPLLMQIRLPANYGRRYNEAFSAIYPKLAKEFDVPLLPFFMEEVYLKPQWMQDDGIHPNRDAQPFIADWMAKQLQPLVNHDS [P0ADA1]
Result string: 4.87

Query string: Now give it for MSNLTGTDKSVILLMTIGEDRAAEVFKHLSQREVQTLSAAMANVTQISNKQLTDVLAEFEQEAEQFAALNINANDYLRSVLVKALGEERAASLLEDILETRDTASGIETLNFMEPQSAADLIRDEHPQIIATILVHLKRAQAADILALFDERLRHDVMLRIATFGGVQPAALAELTEVLNGLLDGQNLKRSKMGGVRTAAEIINLMKTQQEEAVITAVREFDGELAQKIIDEMFLFENLVDVDDRSIQRLLQEVDSESLLIALKGAEQPLREKFLRNMSQRAADILRDDLANRGPVRLSQVENEQKAILLIVRRLAETGEMVIGSGEDTYV [P0ABZ1] too.
Result string: 5.19

---

# protocol.summary: total protein half-life in vivo (active degradation + dilution); higher = more stable protein
# test.conditions: E. coli NCM3722 delta-clpP; growth: N-lim chemostat; doubling time 6 h
reported.endpoint: total protein half-life in vivo (h)
Report as a plain number; the unit h is understood.

- biopolymer.sequence: "MFHRLWTLIRKELQSLLREPQTRAILILPVLIQVILFPFAATLEVTNATIAIYDEDNGEHSVELTQRFARASAFTHVLLLKSPQEIRPTIDTQKALLLVRFPADFSRKLDTFQTAPLQLILDGRNSNSAQIAANYLQQIVKNYQQELLEGKPKPNNSELVVRNWYNPNLDYKWFVVPSLIAMITTIGVMIVTSLSVAREREQGTLDQLLVSPLTTWQIFIGKAVPALIVATFQATIVLAIGIWAYQIPFAGSLALFYFTMVIYGLSLVGFGLLISSLCSTQQQAFIGVFVFMMPAILLSGYVSPVENMPVWLQNLTWINPIRHFTDITKQIYLKDASLDIVWNSLWPLLVITATTGSAAYAMFRRKVM [P0AFP9]"
  result.value: 6.75

Next item in the queue.
Query string: Recorded total protein half-life in vivo of MQCALYDAGRCRSCQWIMQPIPEQLSAKTADLKNLLADFPVEEWCAPVSGPEQGFRNKAKMVVSGSVEKPLLGMLHRDGTPEDLCDCPLYPASFAPVFAALKPFIARAGLTPYNVARKRGELKYILLTESQSDGGMMLRFVLRSDTKLAQLRKALPWLHEQLPQLKVITVNIQPVHMAIMEGETEIYLTEQQALAERFNDVPLWIRPQSFFQTNPAVASQLYATARDWVRQLPVKHMWDLFCGVGGFGLHCATPDMQLTGIEIASEAIACAKQSAAELGLTRLQFQALDSTQFATAQGDVPELVLVNPPRRGIGKPLCDYLSTMAPRFIIYSSCNAQTMAKDIRELPGFRIERVQLFDMFPHTAHYEVLTLLVKQ , please.
Result string: 3.16
